Hello, the source for this data is paper PMC2396520, in case you need it.

System: Candida albicans UP10
Format: cell-based
Conditions: C7/pc42 H2 alanine-substituted derivatives; 100 µg/mL, 37°C, 6 h, CFU assay, triplicate
Where a SMILES comes first, the peptide text is derived from it.

[
  {
    "compound": "CC[C@H](C)[C@H](NC(=O)[C@@H](N)Cc1ccc(O)cc1)C(=O)N[C@@H](CO)C(=O)N[C@@H](CS)C(=O)N[C@@H](Cc1ccc(O)cc1)C(=O)N[C@@H](CC(N)=O)C(=O)N[C@@H](C)C(=O)N[C@@H](C)C(=O)N[C@H](C(=O)N[C@@H](CO)C(=O)N[C@@H](Cc1ccc(O)cc1)C(=O)N[C@@H](CC(N)=O)C(=O)N[C@@H](CCC(N)=O)C(=O)N[C@@H](CCCCN)C(=O)N[C@@H](Cc1ccccc1)C(=O)N[C@@H](CCCCN)C(=O)O)[C@@H](C)O [G7A] (H-YISCYNAATSYNQKFK-OH; N-terminus and C-terminus assumed)",
    "unitSpec": "%",
    "Anti-Candida activity (%) at 100 µg/mL": 100.00
  }
]
